Hello, the source for this data is patent US20230406921A1, in case you need it.

target: CD47 on the surface of human red blood cells (human) (UniProt Q08722)
assayInfo: FACS, hRBC, 500 nM
property: FACS (MFI)
Answer format: numeric, MFI implied, no suffix.

Query :: Value lookup for FACS (MFI); key = h140Hm13/h140Lm14 (antibody, V domains shown) VH: EVQLVQSGAEVKKPGASVKVSCKASGYKFTNYVMSWVRQAPGQRLEWMGYINPYNDAIKYNEKFTGRVTITRDTSASTAYMELSSLRSEDTAVYYCAREGDFYANYGRLGFAYWGQGTLVTVSS VL: DIQMTQSPSSLSASVGDRVTITCRASQDITNYLNWYQQKPGKAPKLLIYYTSRLQSGVPSRFSGSGSGTDYTFTISSLQPEDIATYFCQQGDTYPYTFGGGTKVEIK
Result :: 921

Query :: Report FACS (MFI) for h140Hm13/h140Lm16 (antibody, V domains shown) VH: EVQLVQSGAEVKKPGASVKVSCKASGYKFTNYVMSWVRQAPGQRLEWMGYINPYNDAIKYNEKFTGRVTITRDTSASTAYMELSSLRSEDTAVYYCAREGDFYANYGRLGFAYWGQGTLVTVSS VL: DIQMTQSPSSLSASVGDRVTITCRASQDITNYLNWYQQKPGKAPKLLIYYTSRLQSGVPSRFSGSGSGTDYTFTISSLQPEDIATYFCQQGDTSPYTFGGGTKVEIK please.
Result :: 721

Query :: Which FACS (MFI) reading was recorded for the binder h140Hm13/h140Lm12 (antibody, V domains shown) VH: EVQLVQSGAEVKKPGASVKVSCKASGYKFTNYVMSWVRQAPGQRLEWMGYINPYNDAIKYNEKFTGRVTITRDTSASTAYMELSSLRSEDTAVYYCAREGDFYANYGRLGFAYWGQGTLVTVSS VL: DIQMTQSPSSLSASVGDRVTITCRASQDITNYLNWYQQKPGKAPKLLIYYTSRLQSGVPSRFSGSGSGTDYTFTISSLQPEDIATYFCQQGDTRPYTFGGGTKVEIK ?
Result :: 946
